Hello, the source for this data is paper PMC8623398, in case you need it.

Below: a set of entries, each annotated with reported Viability (%).
Tested on: SW620 cells
PROCEDURE_SUMMARY: Trypan blue assay, SW620
Assay type: cell-based, human
TEST_CONTEXT: SW620, 72 h, compound at IC50 concentration
VALUE_TYPE: Viability (%)

In [3]: df
Out[3]:
                              smiles_string  unit_string  observed_result
0    Fc1ccc(NC(=S)Nc2cccc(C(F)(F)F)c2)cc1Cl            %               79
1     FC(F)(F)c1cccc(NC(=S)Nc2ccc(Cl)cc2)c1            %               84
2  FC(F)(F)c1ccc(NC(=S)Nc2cccc(C(F)(F)F)c2)cc1            %               55
3  FC(F)(F)c1cccc(NC(=S)Nc2ccc(Cl)c(Cl)c2)c1            %               42
4   FC(F)(F)c1cccc(NC(S)=Nc2ccc(Cl)cc2Cl)c1            %               93

---

Below: a set of entries, each annotated with reported Cell Number × 10^5.
Tested on: HaCaT cells
PROCEDURE_SUMMARY: Trypan blue assay, HaCaT
Format: cell-based, human
TEST_CONTEXT: 72 h, compound at IC50 concentration
VALUE_TYPE: Cell Number × 10^5

                                   molecule    observed_result
0  FC(F)(F)c1ccc(NC(=S)Nc2cccc(C(F)(F)F)c2)cc1 [Compound 8]  4.9 ± 0.28 × 10^5
1  Fc1ccc(NC(=S)Nc2cccc(C(F)(F)F)c2)cc1Cl [Compound 1]  6.5 ± 0.15 × 10^5
2  FC(F)(F)c1cccc(NC(=S)Nc2ccc(Cl)c(Cl)c2)c1 [Compound 2]  1.6 ± 0.31 × 10^5
3  FC(F)(F)c1cccc(NC(=S)Nc2ccc(Cl)cc2)c1 [Compound 9]  8.6 ± 0.12 × 10^5
4  FC(F)(F)c1cccc(NC(S)=Nc2ccc(Cl)cc2Cl)c1 [Compound 3]  7.8 ± 0.14 × 10^5

---

Tested on: SW480 cells
PROCEDURE_SUMMARY: MTT assay, SW480
Assay type: cell-based, human
TEST_CONTEXT: Homo sapiens, SW480, 72 h, 50% growth inhibition
pIC50: −log10 of the molar value.
VALUE_TYPE: pIC50

COMPOUND	TEST_SYSTEM	RELATIONAL_OPERATOR	OBSERVED_RESULT
FC(F)(F)c1cccc(NC(=S)Nc2ccc(Cl)cc2)c1 [Compound 9]	SW480 cells	=	4.42
FC(F)(F)c1cccc(NC(=S)Nc2ccc(Br)cc2)c1 [Compound 11]	SW480 cells	=	4.38
FC(F)(F)c1cccc(NC(=S)Nc2cccc(Cl)c2Cl)c1 [Compound 4]	SW480 cells	=	4.65
FC(F)(F)c1cccc(NC(=S)Nc2ccccc2C(F)(F)F)c1 [Compound 7]	SW480 cells	<	4.00
FC(F)(F)c1ccc(NC(=S)Nc2cccc(C(F)(F)F)c2)cc1 [Compound 8]	SW480 cells	=	5.05
N#Cc1ccc(NC(=S)Nc2cccc(C(F)(F)F)c2)cc1 [Compound 10]	SW480 cells	=	4.69
FC(F)(F)c1cccc(NC(=S)Nc2ccc(Cl)c(Cl)c2)c1 [Compound 2]	SW480 cells	=	5.05
FC(F)(F)c1cccc(NC(S)=Nc2ccc(Cl)cc2Cl)c1 [Compound 3]	SW480 cells	=	4.52
Cc1c(Cl)cccc1NC(=S)Nc1cccc(C(F)(F)F)c1 [Compound 5]	SW480 cells	=	5.14
FC(F)(F)c1cccc(NC(=S)NCCc2ccccc2)c1 [Compound 12]	SW480 cells	=	4.60
COc1cccc2c1C(=O)c1c(O)c3c(c(O)c1C2=O)C[C@@](O)(C(=O)CO)C[C@@H]3O[C@H]1C[C@H](N)[C@H](O)[C@H](C)O1 [Doxorubicin, reference compound]	SW480 cells	=	6.10
